This collection of values is drawn from PubChem BioAssay AID588342.

# TESTED SYSTEM: Luciferin 4-monooxygenase (Photinus pyralis) (UniProt P08659)
# Sequence (P08659 whole entry, looked up): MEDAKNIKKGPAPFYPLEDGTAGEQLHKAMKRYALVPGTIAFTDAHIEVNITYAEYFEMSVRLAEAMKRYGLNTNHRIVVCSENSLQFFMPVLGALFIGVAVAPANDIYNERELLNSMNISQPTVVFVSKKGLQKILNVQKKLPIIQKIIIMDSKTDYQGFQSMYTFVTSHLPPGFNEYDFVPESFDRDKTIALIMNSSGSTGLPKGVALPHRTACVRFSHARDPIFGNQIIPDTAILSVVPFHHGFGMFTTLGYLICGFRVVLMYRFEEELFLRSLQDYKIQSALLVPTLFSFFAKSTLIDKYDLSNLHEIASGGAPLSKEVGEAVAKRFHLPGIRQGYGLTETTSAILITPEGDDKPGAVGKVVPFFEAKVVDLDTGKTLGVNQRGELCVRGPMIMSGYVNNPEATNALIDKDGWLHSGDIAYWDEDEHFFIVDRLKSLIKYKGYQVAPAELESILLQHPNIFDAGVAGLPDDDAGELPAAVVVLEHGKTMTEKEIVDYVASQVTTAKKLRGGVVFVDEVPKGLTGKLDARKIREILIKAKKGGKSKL
# TEST PROTOCOL: qHTS profiling assay for firefly luciferase inhibitor/activator using purifed enzyme and Km concentrations of substrates (counterscreen for miR-21 project); further: nearly all actives have a fitted effect of over 55% in size; further: potency means the concentration at half of the fitted maximal effect
# CONDITION: purified FLuc, luminescence inhibition; series mostly up to 57.5 µM
The campaign covered roughly 360,000 compounds. About 25,000 (6.9%) were called active. Roughly 9% stayed inconclusive and do not appear here. Shown is part of a subset that was picked to be rich in actives.
PROPERTY LABEL: Potency

Worked examples, 5 molecules total:
Cc1csc(NC(=O)NC2(C(F)(F)F)Oc3ccccc3O2)n1 | inactive
Oc1ccc(C2Nc3cccc4cccc(c34)N2)cc1 | 16.9 µM (active)
Brc1ccccc1C1Nc2cccc3cccc(c23)N1 | inactive
CCOc1ccc(S(=O)(=O)NCCC(=O)NCC2CCCO2)cc1 (centres undefined) | inactive
CC(C)(C)NC(=O)CSc1nc(-c2ccc(F)cc2)cc(C(F)(F)F)n1 | inactive

Using known records, supply Potency for "Cc1ccccc1Nc1nnc(SCC(=O)c2cc3ccccc3o2)s1"
inactive

Using known records, supply Potency for Cc1ccc(C2CC(c3cccc(C)c3)n3nc(N)nc3N2)cc1 (centres undefined)
inactive

Using known records, supply Potency for "CN1CCN(CCNC(=O)Nc2ccccc2[N+](=O)[O-])CC1"
inactive

Using known records, supply Potency for CN1C(C(=O)NCc2ccco2)CC2Cn3c(nc4ccccc43)C21 (centres undefined)
inactive

Using known records, supply Potency for "CN(Cc1ccccc1)S(=O)(=O)c1ccc(F)c(C(=O)Nc2cccc(Cl)c2Cl)c1"
inactive

Using known records, supply Potency for "Cc1cccc(C)c1NC(=O)COC(=O)c1ccccc1O"
inactive

Using known records, supply Potency for "CC(C)Nc1nnc(SCC(=O)c2c[nH]c3ccccc23)s1"
inactive

Using known records, supply Potency for "Cc1ccc(C)c(Cn2c(CCCNC(=O)C3CCCCC3)nc3ccccc32)c1"
inactive
